Several reports have described pKi for Cytochrome P450 2C9 (Homo sapiens); a selection of those results is presented here.
Scale: pKi equals -log10([C]), with [C] in mol/L.

Example cases with answers are listed next.
COc1cc(O)cc2c1C(=O)C[C@@H](c1ccccc1)O2; 5.19
COc1cc(-c2cc(=O)c3c(O)c(OC)c(O)cc3o2)ccc1O; 5.19
C=CCc1ccc(O)c(-c2ccc(O)c(CC=C)c2)c1; 6.27
Cc1cnc(Nc2ccc(OCCN3CCCC3)cc2)nc1Nc1cccc(S(=O)(=O)NC(C)(C)C)c1; 4.58

We next turn to a different compound, shown below.
**Query** Tell me pKi of "COc1ccc(-c2cc(=O)c3c(O)c(OC)c(O)cc3o2)cc1OC" when tested on Cytochrome P450 2C9 (Homo sapiens).
**Result** 5.80
